TGT: T1, CD3 epsilon homodimer protein (UniProt P07766 23-126)
T1 construct: also called CD3 (CD3 epsilon)
ASSAY_NAME: SPR, antibody over immobilised CD3e homodimer;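 note: SPR at 25 °C with CD3 epsilon homodimer amine-coupled to a CM4 sensor chip and antibody flowed over as analyte in HBS-EP+ running buffer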
Reported KD ratio to GLS3000 values follow for various binders

BINDER: CE115HA000/GLS3000 R29I (antibody, IgG1, name in Kabat numbering, V domains shown, one-arm IgG1) VH: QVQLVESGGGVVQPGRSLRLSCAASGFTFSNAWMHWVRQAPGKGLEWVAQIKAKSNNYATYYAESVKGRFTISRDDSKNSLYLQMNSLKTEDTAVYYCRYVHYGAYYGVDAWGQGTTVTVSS VL: DIVMTQSPLSLPVTPGEPASISCRSSQSLVHSNINTYLHWYQQKPGQAPRLLIYKVSNRFSGVPDRFSGSGSGTDFTLKISRVEAEDVGVYYCGQGTQVPYTFGQGTKLEIK
KD ratio to GLS3000: 1.6

Could you now look at the following binder, please?
## Task Please report the measured KD ratio to GLS3000 for CE115HA000/GLS3000 H27dG (antibody, IgG1, name in Kabat numbering, V domains shown, one-arm IgG1) VH: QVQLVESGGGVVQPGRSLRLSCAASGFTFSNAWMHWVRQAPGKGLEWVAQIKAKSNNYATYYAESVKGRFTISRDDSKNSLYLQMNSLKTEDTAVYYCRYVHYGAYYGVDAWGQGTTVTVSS VL: DIVMTQSPLSLPVTPGEPASISCRSSQSLVGSNRNTYLHWYQQKPGQAPRLLIYKVSNRFSGVPDRFSGSGSGTDFTLKISRVEAEDVGVYYCGQGTQVPYTFGQGTKLEIK
## Result 3.51
